# Test system: K4 kissing-loop RNA reporter
# procedureDetails: apparent KD of K4 kissing-loop reporter; higher = weaker reporter binding
# statedConditions: Eterna round: R107; input ligand: theophylline 20 uM
Kind request: treat 200 nM as inclusive, so apparent KD of K4 kissing-loop reporter at 200 nM or higher is Criterion met, anything lower is Criterion not met.

| sequenceContent | category |
| --- | --- |
| UGUGUUGUUUUGAUGUUUGGUGUUUGUUGGCAGGAUAUCGUAGAGGCGAGAAGGGCUUGGGAGCGGUAUGAGUGAUGUUUGUAGG [deedwrmullin] | Criterion met |
| CUUGGAAGGACGGCCGCCACUGGGCAGUGAUGUUGCCCGACCAGGUAACGCAGUGAUGUUGCGACCAGGACCGGGUCCUAGGAAU [Exclusion Tryptophan B GF 24] | Criterion not met |
| UUUUUCCCGCAGGAUACCAGCAACCAAACGUCAUGCGAAGUGAUGUUUCGCUUACGGUAGUGCCCUUGGCAGCCUUCGGUAGGGU [thingy] | Criterion not met |
| GGGCAUGAUACGAUAAAAUAGUGGAGAGAUACCAGCGUUUUAGAUCGCCCUUGGCAGCUCUCGAGUGAUGUUCGGGUAGCUCUGA [Onedra] | Criterion not met |
| AAGCAGUCACUCGAAAUCAUCGAAGAUGAACGAGGACCGGUACGGCCGCCACUCGGAGUGAUGUUCCGAAGACUGCAAAAUAAAA [MatMod 1 - Jieux - Exclusion - Tryptophan A] | Criterion met |
| UUACCAAGUGAUGUUUGGAAAUAUCCUAGGCAGGAUAUGCGGAAACGCAGAAGGGCCACCUUCUAGUGAAGGAAACUUCGCUAUU [Ex FMN A 3] | Criterion met |

* * *

# System: K4 kissing-loop RNA reporter
# procedureDetails: apparent KD of K4 kissing-loop reporter; higher = weaker reporter binding
# statedConditions: Eterna round: R107; input ligand: none
observedProperty: apparent KD of K4 kissing-loop reporter (µM)

| sequenceContent | tgt | observedProperty | observedValue |
| --- | --- | --- | --- |
| UCGAGUGAUGUUCGAUUUCAGUGAAGAGAUACCAGCCGCAGUGUAGGCCCUUGGCAGCUCGGCUAUUAUGACAUAUGCAGUUUAG [theeternabot_sameState_KL_Theo_A_29] | K4 kissing-loop RNA reporter | apparent KD of K4 kissing-loop reporter | 0.119 |
| UGCGCUAUGUCCUAAAACGUCCUCCGGGAUACCAGUGUCUUUUUAUACCCUUGGCAGCUUGAGUGAUGUUUGAUGCCGUUCUUGU [izzxmullin] | K4 kissing-loop RNA reporter | apparent KD of K4 kissing-loop reporter | 0.31 |
| UACUAUAGUGAUGUUAUAGAUAAACCAGAUACCAGUGUAACAUAACACCCUUGGCAGCUGAUGAGGGAAGAUAUCAAAAGAUAUC [AstroSTH-A#9newdesignED4.70] | K4 kissing-loop RNA reporter | apparent KD of K4 kissing-loop reporter | 0.202 |
| ACGUCACGUAUACUCGUGGUUUCGAUCGAUACCAGUAGCGAGAGUUACCCUUGGCAGCGACAUGAGUGAUGUUCAUGUGCGAAGA [KL-XTheo-A3 #analogue] | K4 kissing-loop RNA reporter | apparent KD of K4 kissing-loop reporter | 0.112 |
| UCCUGCAAUCUGCCACGAAAGUGGAUUGAUACCAGAGUCGAAAGACUCCCUUGGCAGCGAGUGAUGUUCGAAGCAGGUAAAUAAA | K4 kissing-loop RNA reporter | apparent KD of K4 kissing-loop reporter | 0.124 |
| GUCUUACUAUAGGAUACCAGCAUGCAAGGAGUGAUGUUCCCGUCAUAUGAGGAGUACCGCUGCCCUUGGCAGCCUCUUGUAAGUU [theeternabot_sameState_KL_Theo_B_1] | K4 kissing-loop RNA reporter | apparent KD of K4 kissing-loop reporter | 0.353 |

* * *

Reported apparent KD of MS2 coat protein is given for each of the following sequences.
# Test system: MS2 coat protein
# procedureDetails: apparent KD of MS2 coat protein; designed switch direction (-1 OFF switch, 1 ON switch): -1; higher = weaker reporter binding
# statedConditions: input ligand: microRNA oligo, concentration not stated
observedProperty: apparent KD of MS2 coat protein (nM)

| sequenceContent | unitDescriptor | observedValue |
| --- | --- | --- |
| AGUCAGAGAGGAUAUACAUGGGAAAAAAAAGUAAGAUCCCUACAUGAGGAUCACCCAUGUAGAAGGCUCUGACA [Ex2 Design 139: Sub-opt 3] (Eterna round: R96, puzzle: Exclusion 2) | nM | 17.3 |
| AUUGUAUGGGAAGGAUAUAGAAUAUUAUUUUAACAUGAGGAUCACCCAUGUAACCUUAUGUGUAGCUAGAAGGUCCGUUUGUUA [Title] (Eterna round: R96, puzzle: Exclusion NG 2) | nM | 269 |
| CUCGUGCAGCAAAGCUGUACGAGUACAUGAGGAUCACCCAUGUAGGAUAUGGUACGCAAAGCGUGCUAGAAGGACGUGUGUAAG [Mat - Exclusion NG 3 - Mod of JL - D92] (Eterna round: R96, puzzle: Exclusion NG 3) | nM | 33.4 |
| GUACUGAAGCAUAGCUUUAGUCGUACAUGAGGAUCACCCAUGUAGGAUAUGGUAGGCUUUGCUUACUAGAAGGAUAGAGUGAUC [Mat - Exclusion NG 3 - Mod of JL - D71] (Eterna round: R96, puzzle: Exclusion NG 3) | nM | 86.8 |
| UAUAUAUAGUAAGGAUAUGUAUUCAUUUUAUAAACAGAAGGUACUGACAUGAGGAUCACCCAUGUUUUAGUGUGGGCAUGUAGA [JMF's solution 10] (Eterna round: R96, puzzle: Exclusion NG 1) | nM | 64.1 |
| CUGAGGUAGCGGUCCUAUGACAUGAGGAUCACCCAUGUACCUUGCUUUGAGCUAUUUGCUCGUCUUAUGAUUCUCGG [Mat - Sensor v3 - turn-off var 1 - JL Mod - D40] (Eterna round: R96, puzzle: Sensor v3, turn-off variant 1) | nM | 655 |
| GCAGCAUAGUAAACAUACUGUUACAUGAGGAUCACCCAUGUACAGGAUAUGGUCUGGAUUACAGGCCAGAAGGGUACAAGCUGC [Eli exng3 - 023] (Eterna round: R96, puzzle: Exclusion NG 3) | nM | 13 |
| UAUAUAUAGUAAGGAUAUGUAUUAAUUCUAUAAACAGAAGGUACUGACAUGAGGAUCACCCAUGUUUUAGUGUGGGCAUGUAGA [JMF's solution 82] (Eterna round: R96, puzzle: Exclusion NG 1) | nM | 41.3 |
| UUGACGUCGUCAGGAUAUAGUUUUAAUGUCAUGCUUUUGUUUUUACAUGAGGAUCACCCAUGUCGCUAGAAGGGACUAAAGAUU [JR_ExcNG2_Sub012] (Eterna round: R96, puzzle: Exclusion NG 2) | nM | 32.8 |

* * *

Recorded apparent KD of MS2 coat protein, one value per entry.
# Test system: MS2 coat protein
# procedureDetails: apparent KD of MS2 coat protein, switch ON state; designed switch direction (-1 OFF switch, 1 ON switch): -1; higher = weaker reporter binding
# statedConditions: FMN input: 0 or 200 uM; Eterna round: R93 (includes R88 designs)

| sequenceContent | apparent KD of MS2 coat protein, nM |
| --- | --- |
| AAAAAGAGAGGAUAUACAUGAGGAUCACCCAUGUGAAAAAAAAAAAAAGGGAAAAGAUGUAGAAGGCUCAAAAA [65%, Moding Exclusion3-cac2, 16] | 30.4 |
| AAAAAGUGAGGAUAUACGCUGUGGAGUAGACACAACCAGGCGUAGAAGGCACAUGAGGAUCACCCAUGUCCAAA [EX4 Malc#18] | 23.9 |
| AAGAAACAUGAGGAUCACCCAUGUAAGGAUAUCUAAAAGAAAAGAAAAGAAAGAAGAAAGAGAAGGUACAAAGG [Nebhetepre Mentuhotep II] | 87.3 |
| AACAGUACAGGAUAUACAUGAGGAUCACCCAUGUGAGUUUUAAAAGGCGUACCUAAAAGUAGAAGGGUACUGGA [JL Maslow Revisted mod 20] | 24.3 |
| AAGAAGUGAGGAUAUACAUGAGGAUCACCCAUGUAAAAGAAAGAGGGAAAAGAGAAAAGUAGAAGGCACAAGAA [Weserkare-meryamun Ptolemy II Philadelphos] | 35.6 |
| CUGGAGUCAGGAUAUACGAACAUGUCGCCAGAUGUCAAGGUACAUGAGGAUCACCCAUGUAGAAGGGAGGAGAA [salish99-Ex2-33] | 95.2 |

* * *

# System: K4 kissing-loop RNA reporter;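 also: bound reporter read as fluorescence of individual clusters on recovered sequencing chips by microscopy, with normalized cluster intensities fitted with a binding model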
# procedureDetails: apparent KD of K4 kissing-loop reporter; higher = weaker reporter binding
# statedConditions: Eterna round: R107; input ligand: none

| sequenceContent | apparent KD of K4 kissing-loop reporter (µM) |
| --- | --- |
| UGAUAGGACAGAAGGAGCGGUAGUGAUGUUGCCAAAAGGAUAAGGUGUCAAAAGACACCCUGCCAGGUAGGUCGCUGUCCUAUCU | 0.123 |
| GGUAGCAUGGCGGCCGCCACUACCUAGUGAUGUUAGGCUGUGGACAUAGGAGCAAGAUAAAUAUGUAGGACCGGGCCAUGCUACC | 0.103 |
| UGUCUUUUUUUGAUGUUUUUUGUAUAAUGGCAGGAUAUCGUAGAUGCGAGAAGGGCUUUUAUGCGUUAUGAGUGAUGUUUGUAGG [vjjbvmullin] | 0.297 |
| UAUCUAUGCUCGGCCGCCACUAGGACCGGGAUCUCUCUAGUGAUGUUAGUCUGAUCGGCCGCCACUAGGACCGGGAGUGUAGAUA [KL-SSTryp-B15 #DoubleAptamer] | 0.0912 |

The reported numbers originate from the supplement of paper PMC9170038.
